The reported numbers originate from patent US10364255B2.

- TESTED_TARGET: FLAG-tagged Vanin-1 (AA 22-493, T26I) (Homo sapiens (Human), UniProt O95497, T26I)
- Sequence (O95497 22-493 T26I): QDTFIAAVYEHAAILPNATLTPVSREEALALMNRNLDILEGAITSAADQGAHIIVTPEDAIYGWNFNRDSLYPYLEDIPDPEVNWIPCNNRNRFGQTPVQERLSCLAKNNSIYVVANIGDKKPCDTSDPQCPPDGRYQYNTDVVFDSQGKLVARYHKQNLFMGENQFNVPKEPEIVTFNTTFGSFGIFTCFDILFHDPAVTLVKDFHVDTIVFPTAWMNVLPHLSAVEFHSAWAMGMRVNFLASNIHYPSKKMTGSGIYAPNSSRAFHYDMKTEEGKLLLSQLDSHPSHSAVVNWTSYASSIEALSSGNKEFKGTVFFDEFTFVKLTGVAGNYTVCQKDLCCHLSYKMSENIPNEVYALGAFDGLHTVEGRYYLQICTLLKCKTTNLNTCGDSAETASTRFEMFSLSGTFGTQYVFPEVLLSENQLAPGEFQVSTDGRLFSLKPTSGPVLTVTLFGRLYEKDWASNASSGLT
- METHOD_NOTES: Vanin-1 enzymatic assay (pantothenic acid formation, RapidFire Mass Spectrometry)
- Assay type: biochemical
- SETTINGS: VNN1-assay method 2: 0.1 nM Vanin-1, 20 min preincubation, 3 μM D-Pantethine; geometric mean if multiple measurements; read-out: VNN 1 IC50
Assignment: determine reported pIC50 for the given compounds.
Expect pIC50 as a plain number equal to -log10 of the molar concentration.

Reported pIC50, compound CN1C(=O)CCC12CCN(C(=O)c1cnc3c(c1)OCCC1(CC1)N3)C2 (stereo not drawn) : ____ 8.96

Reported pIC50, compound "O=C(c1cnc2c(c1)OCC1(CC1)N2)N1CC[C@H](N2CCOC2=O)C1" : ____ 9.22

Reported pIC50, compound "CN([C@H]1CCN(C(=O)c2cnc3c(c2)OCC2(CC2)N3)C1)S(=O)(=O)C1CC1" : ____ 8.64

Reported pIC50, compound "O=C(c1cnc2c(c1)OCCC1(CC1)N2)N1CC[C@H](N2CCCC2=O)C1" : ____ 10.00

Reported pIC50, compound "CN1C(=O)CC[C@@]12CCN(C(=O)c1cnc3c(c1)OCCC1(CC1)N3)C2" : ____ 9.22

Reported pIC50, compound "CN(C(=O)C1CC1)[C@H]1CCN(C(=O)c2cnc3c(c2)OCC2(CC2)N3)C1" : ____ 9.15

---

- TESTED_TARGET: FLAG-tagged Vanin-1 (AA 22-493, T26I) (Homo sapiens (Human), UniProt O95497, T26I)
- METHOD_NOTES: Vanin-1 enzymatic assay (pantothenic acid formation, RapidFire Mass Spectrometry)
- Type: biochemical
- SETTINGS: VNN1-assay methods 1 + 2: geometric mean of values determined by method 1 and method 2; read-out: VNN 1 IC50
PROPERTY: pIC50
Expect pIC50 as a plain number equal to -log10 of the molar concentration.

Reported pIC50, compound C[C@H]1CNc2ncc(C(=O)N3CCC(c4ccncc4)C3)cc2O1 (some centres unmarked) : ____ 8.46

Reported pIC50, compound C[C@H]1COc2cc(C(=O)N3CCC(c4ccncc4)C3)cnc2N1 (some centres unmarked) : ____ 8.77

Reported pIC50, compound "CC(=O)N(C)[C@H]1CCN(C(=O)c2cnc3c(c2)OC[C@H](c2ccccc2)N3)C1" : ____ 8.62

Reported pIC50, compound "CC(=O)N(C)[C@H]1CCN(C(=O)c2cnc3c(c2)OCCC2(CC2)N3)C1" : ____ 9.70

Reported pIC50, compound "CC[C@@H]1COc2cc(C(=O)N3CC[C@H](N(C)C(C)=O)C3)cnc2N1" : ____ 8.48

---

- TESTED_TARGET: FLAG-tagged Vanin-1 (AA 22-493, T26I) (Homo sapiens (Human), UniProt O95497, T26I)
- METHOD_NOTES: Vanin-1 enzymatic assay (pantothenic acid formation, RapidFire Mass Spectrometry)
- Type: biochemical
- SETTINGS: VNN1-assay method 2: 0.1 nM Vanin-1, 20 min preincubation, 3 μM D-Pantethine; geometric mean if multiple measurements; read-out: VNN 1 IC50
Assignment: determine reported pIC50 for the given molecules.
Expect pIC50 as a plain number equal to -log10 of the molar concentration.

Reported pIC50, molecule O=C(c1cnc2c(c1)OCCC1(CC1)N2)N1CC[C@H](N2CCOC2=O)C1 [Example 26] : ____ 9.70

Reported pIC50, molecule O=C(c1cnc2c(c1)OCC1(CC1)N2)N1CC[C@H](N2CCCC2=O)C1 [Example 15] : ____ 9.15

Reported pIC50, molecule CN1C(=O)CC[C@]12CCN(C(=O)c1cnc3c(c1)OCCC1(CC1)N3)C2 [Example 23] : ____ 8.09

Reported pIC50, molecule CN(C(=O)C1COC1)[C@H]1CCN(C(=O)c2cnc3c(c2)OCC2(CC2)N3)C1 [Example 18] : ____ 9.05

---

- Test system: human whole blood
- METHOD_NOTES: Human Whole Blood assay (HWB; pantothenic acid formation from D-Pantethine)
- Format: cell-based
- SETTINGS: 10 μM D-Pantethine, 30 minutes at room temperature, geometric mean if multiple measurements
PROPERTY: IC50 (nM)
Your answer is read as nM, so omit the unit and give the number.

Reported IC50, compound O=C(c1cnc2c(c1)OC[C@H](c1ccccc1)N2)N1CCC(c2ccncc2)C1 (single isomer, unassigned) [Example 12] : ____ 330

Reported IC50, compound O=C(c1cnc2c(c1)OC[C@H](c1ccccc1)N2)N1CCC(c2ccncc2)C1 (single isomer, unassigned) [Example 11] : ____ 3700

Reported IC50, compound O=C(c1cnc2c(c1)OCC1(CC1)N2)N1CCC(c2ccncc2)C1 (single isomer, unassigned) [Example 20] : ____ 130

Reported IC50, compound O=C(c1cnc2c(c1)OCC1(CC1)N2)N1CCC(c2ccncc2)C1 (single isomer, unassigned) [Example 22] : ____ 37

---

- TESTED_TARGET: FLAG-tagged Vanin-1 (AA 22-493, T26I) (Homo sapiens (Human), UniProt O95497, T26I)
- METHOD_NOTES: Vanin-1 enzymatic assay (pantothenic acid formation, RapidFire Mass Spectrometry)
- Format: biochemical
- SETTINGS: VNN1-assay method 1: 0.15 nM Vanin-1, 15 min preincubation, 3 μM D-Pantethine; geometric mean if multiple measurements; read-out: VNN 1 IC50
- Experimental: The test compounds are dissolved in 100% DMSO at a concentration of 10 mM and in a first step diluted in DMSO to a concentration of 5 mM, followed by serial dilution steps in 100% DMSO. Dilution factor and number of dilution steps may vary according to needs. […] The values given in Table I result from measurements of one or more samples. In case of multiple measurements the geometric mean values determined by method 1 and/or method 2 are given.
# label = bin(measured IC50), where bins are low bracket (below 2 nM), middle bracket (2 nM to below 4 nM), high bracket (4 nM or more)

Lab log: CC[C@@H]1COc2cc(C(=O)N3CCC(c4ccncc4)C3)cnc2N1 (stereo partly shown) — assign IC50 category high bracket

Lab log: O=C(c1cnc2c(c1)OCC1(CC1)N2)N1CCC(c2ccncc2)C1 (single isomer, unassigned) [Example 22] — assign IC50 category low bracket

Lab log: "CC(=O)N(C)[C@H]1CCN(C(=O)c2cnc3c(c2)OC[C@@H](C(C)C)N3)C1" — assign IC50 category middle bracket

Lab log: O=C(c1cnc2c(c1)OC[C@H](c1ccccc1)N2)N1CCC(c2ccncc2)C1 (single isomer, unassigned) [Example 12] — assign IC50 category low bracket

Lab log: O=C(c1cnc2c(c1)OC[C@H](c1ccccc1)N2)N1CCC(c2ccncc2)C1 (single isomer, unassigned) [Example 11] — assign IC50 category high bracket

Lab log: "CC[C@H]1COc2cc(C(=O)N3CC[C@H](N(C)C(C)=O)C3)cnc2N1" — assign IC50 category low bracket

Lab log: CC(C)[C@H]1COc2cc(C(=O)N3CCC(c4ccncc4)C3)cnc2N1 (stereo partly shown) — assign IC50 category middle bracket

Lab log: "CC(=O)N(C)[C@H]1CCN(C(=O)c2cnc3c(c2)OC[C@H](C(C)C)N3)C1" — assign IC50 category low bracket

Lab log: CC(C)[C@@H]1COc2cc(C(=O)N3CCC(c4ccncc4)C3)cnc2N1 (stereo partly shown) — assign IC50 category high bracket

Lab log: O=C(c1cnc2c(c1)OCC1(CC1)N2)N1CCC(c2ccncc2)C1 (single isomer, unassigned) [Example 20] — assign IC50 category low bracket

Lab log: O=C(c1cnc2c(c1)OC[C@@H](c1ccccc1)N2)N1CCC(c2ccncc2)C1 (stereo partly shown) — assign IC50 category high bracket

Lab log: C[C@@H]1CNc2ncc(C(=O)N3CCC(c4ccncc4)C3)cc2O1 (stereo partly shown) — assign IC50 category middle bracket

Lab log: C[C@@H]1COc2cc(C(=O)N3CCC(c4cccnc4)C3)cnc2N1 (stereo partly shown) — assign IC50 category middle bracket

---

- TESTED_TARGET: FLAG-tagged Vanin-1 (AA 22-493, T26I) (Homo sapiens (Human), UniProt O95497, T26I)
- METHOD_NOTES: Vanin-1 enzymatic assay (pantothenic acid formation, RapidFire Mass Spectrometry)
- Assay type: biochemical
- SETTINGS: VNN1-assay methods 1 + 2: geometric mean of values determined by method 1 and method 2; read-out: VNN 1 IC50
PROPERTY: IC50
Please make sure the unit comes right after the number.

What is its IC50 for FLAG-tagged Vanin-1 (AA 22-493, T26I) (Homo sapiens (Human), UniProt O95497, T26I)? Entry: CC[C@H]1COc2cc(C(=O)N3CCC(c4ccncc4)C3)cnc2N1 (stereo partly shown) 3.1 nM

What is its IC50 for FLAG-tagged Vanin-1 (AA 22-493, T26I) (Homo sapiens (Human), UniProt O95497, T26I)? Entry: "CC(=O)N(C)[C@H]1CCN(C(=O)c2cnc3c(c2)OC[C@@H](c2ccccc2)N3)C1" 1750 nM

What is its IC50 for FLAG-tagged Vanin-1 (AA 22-493, T26I) (Homo sapiens (Human), UniProt O95497, T26I)? Entry: "CC(=O)N(C)[C@H]1CCN(C(=O)c2cnc3c(c2)OCC2(CC2)N3)C1" 0.4 nM

What is its IC50 for FLAG-tagged Vanin-1 (AA 22-493, T26I) (Homo sapiens (Human), UniProt O95497, T26I)? Entry: "CC(=O)N(C)[C@H]1CCN(C(=O)c2cnc3c(c2)O[C@@H](C)CN3)C1" 26.1 nM

What is its IC50 for FLAG-tagged Vanin-1 (AA 22-493, T26I) (Homo sapiens (Human), UniProt O95497, T26I)? Entry: "CC(=O)N(C)[C@H]1CCN(C(=O)c2cnc3c(c2)OC[C@@H](C)N3)C1" 3.3 nM

What is its IC50 for FLAG-tagged Vanin-1 (AA 22-493, T26I) (Homo sapiens (Human), UniProt O95497, T26I)? Entry: "CC(=O)N(C)[C@H]1CCN(C(=O)c2cnc3c(c2)OCC(C)(C)CN3)C1" 1.1 nM

What is its IC50 for FLAG-tagged Vanin-1 (AA 22-493, T26I) (Homo sapiens (Human), UniProt O95497, T26I)? Entry: "CC(=O)N(C)[C@H]1CCN(C(=O)c2cnc3c(c2)OC[C@H](C)N3)C1" 1.8 nM
